molecular target: UniProt P30518; assay: Cellular in vitro assay for vasopressin receptor activity, V2 cell line (CRE-luciferase); conditions: CHO cell line transfected with human V2 receptor; agonist [Arg8]-vasopressin at EC50 concentration, 3 hours; read-out: IC50hV2
Reported Endpoint: log10 of IC50 (log10 of the value in nM)

| Compound | Measured On | log10 of IC50 |
| --- | --- | --- |
| CC(F)(F)c1nc(Cn2nc(-c3ccc(Cl)cc3)n(C[C@H](O)C(F)(F)F)c2=O)nn1-c1cnccc1C(F)(F)F | UniProt P30518 | 1.39 |
| CC(F)c1nc(Cn2nc(-c3ccc(Cl)cc3)n(C[C@H](O)C(F)(F)F)c2=O)nn1-c1ccccc1OC(F)F (single isomer, unassigned) [Example 33] | UniProt P30518 | 0.26 |
| CC(F)(F)c1nc(Cn2nc(-c3ccc(Cl)cc3)n(C[C@H](O)C(F)(F)F)c2=O)nn1-c1ccccc1S(N)(=O)=O | UniProt P30518 | 2.53 |
| CC(F)c1nc(Cn2nc(-c3ccc(Cl)cc3)n(C[C@H](O)C(F)(F)F)c2=O)nn1-c1c(F)cccc1Cl (mixture of isomers) | UniProt P30518 | 0.47 |
| O=c1n(Cc2nc(C(F)F)n(-c3ccccc3Cl)n2)nc(-c2ccc(Cl)cc2)n1C[C@H](O)C(F)(F)F | UniProt P30518 | 0.34 |
| CC(F)c1nc(Cn2nc(-c3ccc(Cl)cc3)n(C[C@H](O)C(F)(F)F)c2=O)nn1-c1ccccc1OC(F)F (single isomer, unassigned) [Example 32] | UniProt P30518 | 0.95 |
| CC(F)(F)c1nc(Cn2nc(-c3ccc(Cl)cc3)n(C[C@H](O)C(F)(F)F)c2=O)nn1-c1ncccc1C(F)(F)F | UniProt P30518 | 1.43 |
| CC(F)c1nc(Cn2nc(-c3ccc(Cl)cc3)n(C[C@H](O)C(F)(F)F)c2=O)nn1-c1cnccc1C(F)(F)F (single isomer, unassigned) [Example 9] | UniProt P30518 | 0.85 |
| CC(F)(F)c1nc(Cn2nc(-c3ccc(Cl)cc3)n(C[C@H](O)C(F)(F)F)c2=O)nn1-c1c(Cl)cccc1Cl | UniProt P30518 | 0.63 |
| CC(F)c1nc(Cn2nc(-c3ccc(Cl)cc3)n(C[C@H](O)C(F)(F)F)c2=O)nn1-c1ccccc1Cl (single isomer, unassigned) [Example 2] | UniProt P30518 | 0.13 |
| O=c1n(Cc2nc(C(F)(F)C3(O)CCCC3)n(-c3ccccc3Cl)n2)nc(-c2ccc(Cl)cc2)n1C[C@H](O)C(F)(F)F | UniProt P30518 | 0.73 |
| CC(F)c1nc(Cn2nc(-c3ccc(Cl)cc3)n(C[C@H](O)C(F)(F)F)c2=O)nn1-c1c(Cl)cccc1Cl (mixture of isomers) | UniProt P30518 | 0.49 |
| O=c1n(Cc2nc(C(F)(F)F)n(-c3cccc(F)c3)n2)nc(-c2ccc(Cl)cc2)n1C[C@H](O)C(F)(F)F | UniProt P30518 | 0.68 |
| CC(F)c1nc(Cn2nc(-c3ccc(Cl)cc3)n(C[C@H](O)C(F)(F)F)c2=O)nn1-c1ncccc1Cl (mixture of isomers) [Example 19] | UniProt P30518 | 1.17 |
| CC(F)c1nc(Cn2nc(-c3ccc(Cl)cc3)n(C[C@H](O)C(F)(F)F)c2=O)nn1-c1cccc(Cl)c1 (single isomer, unassigned) [Example 17] | UniProt P30518 | -0.60 |
| CC(F)(F)c1nc(Cn2nc(-c3ccc(Cl)cc3)n(C[C@H](O)C(F)(F)F)c2=O)nn1-c1ncccc1Cl | UniProt P30518 | 0.53 |
| CCc1ccccc1-n1nc(Cn2nc(-c3ccc(Cl)cc3)n(C[C@H](O)C(F)(F)F)c2=O)nc1C(C)F (single isomer, unassigned) [Example 29] | UniProt P30518 | -0.43 |
| CC(F)c1nc(Cn2nc(-c3ccc(Cl)cc3)n(C[C@H](O)C(F)(F)F)c2=O)nn1-c1cccc(Cl)c1 (mixture of isomers) [Example 16] | UniProt P30518 | -0.24 |
| CC(C)c1ccccc1-n1nc(Cn2nc(-c3ccc(Cl)cc3)n(C[C@H](O)C(F)(F)F)c2=O)nc1C(C)(F)F | UniProt P30518 | 1.54 |
| CC(F)(F)c1nc(Cn2nc(-c3ccc(Cl)cc3)n(C[C@H](O)C(F)(F)F)c2=O)nn1-c1ccccc1[N+](=O)[O-] | UniProt P30518 | 1.06 |
| CCOc1ccccc1-n1nc(Cn2nc(-c3ccc(Cl)cc3)n(C[C@H](O)C(F)(F)F)c2=O)nc1C(C)F (mixture of isomers) | UniProt P30518 | 0.69 |
| CCc1cccc(C)c1-n1nc(Cn2nc(-c3ccc(Cl)cc3)n(C[C@H](O)C(F)(F)F)c2=O)nc1C(C)F (mixture of isomers) | UniProt P30518 | 0.69 |
| CC(F)c1nc(Cn2nc(-c3ccc(Cl)cc3)n(C[C@H](O)C(F)(F)F)c2=O)nn1-c1ccccc1Cl (single isomer, unassigned) [Example 3] | UniProt P30518 | -0.03 |

###

Property: pIC50; scope: individual molecules
target: human V2 receptor (Homo sapiens); assay: Cellular in vitro assay for vasopressin receptor activity, V2 cell line (CRE-luciferase); details: CHO cell line transfected with human V2 receptor; agonist [Arg8]-vasopressin at EC50 concentration, 3 hours; read-out: IC50hV2
Sequence (P30518 whole entry): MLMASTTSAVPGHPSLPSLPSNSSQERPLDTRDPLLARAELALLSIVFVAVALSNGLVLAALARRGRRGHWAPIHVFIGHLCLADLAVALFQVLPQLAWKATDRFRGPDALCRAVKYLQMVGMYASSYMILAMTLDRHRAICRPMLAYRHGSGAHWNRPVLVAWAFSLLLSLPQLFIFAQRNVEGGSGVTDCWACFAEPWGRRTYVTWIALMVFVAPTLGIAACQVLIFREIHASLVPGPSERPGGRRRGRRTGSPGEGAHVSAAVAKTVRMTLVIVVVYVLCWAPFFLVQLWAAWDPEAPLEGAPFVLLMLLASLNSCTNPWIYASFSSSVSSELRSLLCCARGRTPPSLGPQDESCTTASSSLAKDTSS
pIC50: −log10 of the molar value.

| Molecule | pIC50 |
| --- | --- |
| CC(F)(F)c1nc(Cn2nc(-c3ccc(Cl)cc3)n(C[C@H](O)C(F)(F)F)c2=O)nn1-c1ccccc1C(F)(F)F | 7.94 |
| O=c1n(Cc2nc(C(F)F)n(-c3cccc(Cl)c3)n2)nc(-c2ccc(Cl)cc2)n1C[C@H](O)C(F)(F)F | 8.59 |
| Cc1cccc(C)c1-n1nc(Cn2nc(-c3ccc(Cl)cc3)n(C[C@H](O)C(F)(F)F)c2=O)nc1C(C)F (mixture of isomers) | 8.76 |
| CCc1cccc(C)c1-n1nc(Cn2nc(-c3ccc(Cl)cc3)n(C[C@H](O)C(F)(F)F)c2=O)nc1C(C)(F)F | 7.92 |
| Cc1ccccc1-n1nc(Cn2nc(-c3ccc(Cl)cc3)n(C[C@H](O)C(F)(F)F)c2=O)nc1C(C)F (mixture of isomers) [Example 34] | 9.08 |
| CSc1ccccc1-n1nc(Cn2nc(-c3ccc(Cl)cc3)n(C[C@H](O)C(F)(F)F)c2=O)nc1C(C)(F)F | 9.01 |
| CC(F)c1nc(Cn2nc(-c3ccc(Cl)cc3)n(C[C@H](O)C(F)(F)F)c2=O)nn1-c1ccccc1C#N (single isomer, unassigned) [Example 40] | 6.38 |
| CC(F)c1nc(Cn2nc(-c3ccc(Cl)cc3)n(C[C@H](O)C(F)(F)F)c2=O)nn1-c1cnccc1Cl (single isomer, unassigned) [Example 6] | 8.63 |
| CC(F)c1nc(Cn2nc(-c3ccc(Cl)cc3)n(C[C@H](O)C(F)(F)F)c2=O)nn1-c1cccc(F)c1 (single isomer, unassigned) [Example 14] | 8.76 |
| CC(F)c1nc(Cn2nc(-c3ccc(Cl)cc3)n(C[C@H](O)C(F)(F)F)c2=O)nn1-c1ccccc1Cl (mixture of isomers) [Example 1] | 9.15 |
| CCOc1ccccc1-n1nc(Cn2nc(-c3ccc(Cl)cc3)n(C[C@H](O)C(F)(F)F)c2=O)nc1C(C)(F)F | 8.11 |
| CC(F)c1nc(Cn2nc(-c3ccc(Cl)cc3)n(C[C@H](O)C(F)(F)F)c2=O)nn1-c1cnccc1C(F)(F)F (single isomer, unassigned) [Example 8] | 7.70 |
| CC(F)(F)c1nc(Cn2nc(-c3ccc(Cl)cc3)n(C[C@H](O)C(F)(F)F)c2=O)nn1-c1cccc(Cl)c1 | 8.28 |
| CC(F)c1nc(Cn2nc(-c3ccc(Cl)cc3)n(C[C@H](O)C(F)(F)F)c2=O)nn1-c1ccccc1OC(F)(F)F (mixture of isomers) [Example 25] | 7.77 |
| CC(F)c1nc(Cn2nc(-c3ccc(Cl)cc3)n(C[C@H](O)C(F)(F)F)c2=O)nn1-c1cnccc1C(F)(F)F (stereo partly drawn) [Example 7] | 7.90 |
| Cc1ccccc1-n1nc(Cn2nc(-c3ccc(Cl)cc3)n(C[C@H](O)C(F)(F)F)c2=O)nc1C(C)F (single isomer, unassigned) [Example 36] | 9.01 |
| CSc1ccccc1-n1nc(Cn2nc(-c3ccc(Cl)cc3)n(C[C@H](O)C(F)(F)F)c2=O)nc1C(C)F (mixture of isomers) | 9.35 |
| CC(F)c1nc(Cn2nc(-c3ccc(Cl)cc3)n(C[C@H](O)C(F)(F)F)c2=O)nn1-c1cccc(Cl)c1 (single isomer, unassigned) [Example 18] | 8.41 |
| CC(F)(F)c1nc(Cn2nc(-c3ccc(Cl)cc3)n(C[C@H](O)C(F)(F)F)c2=O)nn1-c1cccc(F)c1 | 8.28 |
| O=c1n(Cc2nc(C(F)(F)F)n(-c3ccccc3Cl)n2)nc(-c2ccc(Cl)cc2)n1C[C@H](O)C(F)(F)F | 8.59 |
| CC(F)c1nc(Cn2nc(-c3ccc(Cl)cc3)n(C[C@H](O)C(F)(F)F)c2=O)nn1-c1ccccc1C(F)(F)F (single isomer, unassigned) [Example 24] | 8.33 |
| CC(F)c1nc(Cn2nc(-c3ccc(Cl)cc3)n(C[C@H](O)C(F)(F)F)c2=O)nn1-c1ccccc1[N+](=O)[O-] (mixture of isomers) | 8.00 |
| CC(F)c1nc(Cn2nc(-c3ccc(Cl)cc3)n(C[C@H](O)C(F)(F)F)c2=O)nn1-c1ncccc1C(F)(F)F (single isomer, unassigned) [Example 11] | 7.13 |
| CC(F)(F)c1nc(Cn2nc(-c3ccc(Cl)cc3)n(C[C@H](O)C(F)(F)F)c2=O)nn1-c1c(F)cccc1Cl | 8.16 |
